Provide the recorded Kd for the entries that follow.
target: FGFR2 (Homo sapiens); construct: made in house; host or cells: E. coli (BL21-derived), T7 phage; assay: Kinase binding assay (kinase-tagged T7 phage, affinity beads, qPCR), Kd; settings: read-out: FGFR2 (Kd nM)
Sequence (P21802 22-821): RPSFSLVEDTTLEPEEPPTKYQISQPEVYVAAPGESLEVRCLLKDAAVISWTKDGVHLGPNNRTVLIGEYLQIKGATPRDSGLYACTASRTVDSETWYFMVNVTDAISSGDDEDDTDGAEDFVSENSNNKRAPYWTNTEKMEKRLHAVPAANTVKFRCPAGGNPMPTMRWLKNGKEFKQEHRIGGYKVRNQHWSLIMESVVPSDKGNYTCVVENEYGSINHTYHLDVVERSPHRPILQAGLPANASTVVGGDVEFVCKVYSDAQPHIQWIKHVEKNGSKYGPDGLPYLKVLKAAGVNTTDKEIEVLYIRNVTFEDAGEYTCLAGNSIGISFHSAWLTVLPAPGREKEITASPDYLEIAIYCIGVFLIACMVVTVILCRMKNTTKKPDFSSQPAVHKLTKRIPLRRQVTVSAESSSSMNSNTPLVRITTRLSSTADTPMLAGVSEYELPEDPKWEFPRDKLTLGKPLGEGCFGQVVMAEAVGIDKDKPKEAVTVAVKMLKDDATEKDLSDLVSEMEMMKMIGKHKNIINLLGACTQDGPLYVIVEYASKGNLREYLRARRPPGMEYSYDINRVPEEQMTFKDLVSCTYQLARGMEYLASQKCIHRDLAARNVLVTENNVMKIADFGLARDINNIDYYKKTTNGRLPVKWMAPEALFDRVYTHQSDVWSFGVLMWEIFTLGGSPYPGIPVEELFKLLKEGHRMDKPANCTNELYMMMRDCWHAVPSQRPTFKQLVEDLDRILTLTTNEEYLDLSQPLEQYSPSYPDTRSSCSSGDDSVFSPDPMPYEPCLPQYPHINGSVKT

Asked: Recorded Kd for COc1cc2[nH]nc(-c3cnc(N4CC(C)(NCC5CC5)C4)c(C#N)c3)c2cc1O[C@@H](C)c1c(Cl)cncc1Cl , please?
Given back: > 1000 nM

Asked: Recorded Kd for COc1cc2[nH]nc(-c3cnc(N4CC(C)(CS(C)(=O)=O)C4)c(F)c3)c2cc1O[C@H](C)c1c(Cl)cncc1Cl , please?
Given back: 1 to 50 nM

Asked: Recorded Kd for C[C@@H](Oc1ccc2[nH]nc(-c3cnc(N4CC(C)(N5CCCC5)C4)c(C#N)c3)c2c1)c1c(Cl)cncc1Cl , please?
Given back: 1 to 50 nM

Asked: Recorded Kd for Cc1ncc(Cl)c([C@@H](C)Oc2ccc3[nH]nc(-c4cnc(N5CC(C)(NC6CCC6)C5)c(C#N)c4)c3c2)c1Cl , please?
Given back: 300 to 1000 nM

Asked: Recorded Kd for COc1cc2[nH]nc(-c3cnc(N4CC(C)(NCCC(F)F)C4)c(C#N)c3)c2cc1O[C@H](C)c1c(Cl)cncc1Cl , please?
Given back: 1 to 50 nM

Asked: Recorded Kd for C=CCNC1(C)CN(c2ncc(-c3n[nH]c4ccc(O[C@H](C)c5c(Cl)cncc5Cl)cc34)cn2)C1 , please?
Given back: 1 to 50 nM

Asked: Recorded Kd for C[C@H]1CN(C2(C)CN(c3ccc(-c4n[nH]c5ccc(O[C@H](C)c6c(Cl)cncc6Cl)cc45)cn3)C2)CCO1 , please?
Given back: 1 to 50 nM

* * *

target: FGFR2 (Homo sapiens); construct: made in house; host or cells: E. coli (BL21-derived), T7 phage; experiment: Kinase binding assay (kinase-tagged T7 phage, affinity beads, qPCR), Kd; settings: read-out: FGFR2 (Kd nM)
Where a name gives a salt, the structure may show the parent alone.
measure-name: Kd

Asked: Any idea what Kd came out for CCN(CC)C1(C)CN(c2ccc(-c3n[nH]c4ccc(O[C@H](C)c5c(Cl)cnc(C)c5Cl)cc34)cn2)C1 on FGFR2 (Homo sapiens)?
Given back: 1 to 50 nM

Asked: Any idea what Kd came out for COc1cc2[nH]nc(-c3cc(C#N)c(N4CC(C)(N(C)C)C4)nn3)c2cc1O[C@H](C)c1c(Cl)cncc1Cl on FGFR2 (Homo sapiens)?
Given back: 1 to 50 nM

Asked: Any idea what Kd came out for C[C@@H](Oc1ccc2[nH]nc(-c3ccc(N4CC(C)(N5CCC5)C4)nc3)c2c1)c1c(Cl)cncc1Cl on FGFR2 (Homo sapiens)?
Given back: 1 to 50 nM

Asked: Any idea what Kd came out for COc1cc2[nH]nc(-c3ccc(N4CC(C)(N[C@@H]5CCOC5)C4)nc3)c2cc1O[C@H](C)c1c(Cl)cncc1Cl on FGFR2 (Homo sapiens)?
Given back: 1 to 50 nM

Asked: Any idea what Kd came out for COc1cc2[nH]nc(-c3cnc(N4CC5(CC5)C4)c(C#N)c3)c2cc1O[C@H](C)c1c(Cl)cncc1Cl [Example 3] on FGFR2 (Homo sapiens)?
Given back: 300 to 1000 nM

Asked: Any idea what Kd came out for CCNC1(C)CN(c2ncc(-c3n[nH]c4cc(OC)c(O[C@H](C)c5c(Cl)cncc5Cl)cc34)cc2C#N)C1 [Example 341, HCl] on FGFR2 (Homo sapiens)?
Given back: 1 to 50 nM

Asked: Any idea what Kd came out for COc1cc2[nH]nc(-c3cnc(N4CC(C)(CS(C)(=O)=O)C4)c(C#N)c3)c2cc1O[C@@H](C)c1c(Cl)cncc1Cl on FGFR2 (Homo sapiens)?
Given back: > 1000 nM

Asked: Any idea what Kd came out for C[C@@H](Oc1ccc2[nH]nc(-c3cnc(N4CC(C)(NCCO)C4)c(F)c3)c2c1)c1c(Cl)cncc1Cl on FGFR2 (Homo sapiens)?
Given back: 1 to 50 nM

Asked: Any idea what Kd came out for COc1cc2[nH]nc(-c3cnc(N4CC(C)(N(C)C)C4)nc3)c2cc1O[C@H](C)c1c(Cl)cncc1Cl on FGFR2 (Homo sapiens)?
Given back: 1 to 50 nM

Asked: Any idea what Kd came out for C[C@@H](Oc1cc2c(-c3ccc(N4CC(C)(CN5CCCC5)C4)nc3)n[nH]c2cc1F)c1c(Cl)cncc1Cl on FGFR2 (Homo sapiens)?
Given back: 1 to 50 nM

Asked: Any idea what Kd came out for COc1cc2[nH]nc(-c3cnc(N4CC(C)(O)C4)c(C#N)c3)c2cc1O[C@H](C)c1c(Cl)cncc1Cl on FGFR2 (Homo sapiens)?
Given back: 1 to 50 nM

Asked: Any idea what Kd came out for C[C@@H](Oc1ccc2[nH]nc(-c3cnc(N4CC(C)(CNS(C)(=O)=O)C4)c(C#N)c3)c2c1)c1c(Cl)cncc1Cl on FGFR2 (Homo sapiens)?
Given back: 50 to 300 nM

Asked: Any idea what Kd came out for C[C@@H](Oc1ccc2[nH]nc(-c3ccc(N4CC(C)(N5CCCC5)C4)nc3)c2c1F)c1c(Cl)cncc1Cl on FGFR2 (Homo sapiens)?
Given back: 300 to 1000 nM

Asked: Any idea what Kd came out for CCNC1(C)CN(c2ncc(-c3n[nH]c4ccc(O[C@H](C)c5c(Cl)cnc(C)c5Cl)cc34)cc2C#N)C1 on FGFR2 (Homo sapiens)?
Given back: 50 to 300 nM

Asked: Any idea what Kd came out for C=CCNC1(C)CN(c2ccc(-c3n[nH]c4ccc(O[C@H](C)c5c(Cl)cncc5Cl)cc34)cn2)C1 on FGFR2 (Homo sapiens)?
Given back: 1 to 50 nM

Asked: Any idea what Kd came out for C[C@@H](Oc1ccc2[nH]nc(-c3cnc(N4CC(C)(N5CC(C)(O)C5)C4)c(C#N)c3)c2c1)c1c(Cl)cncc1Cl on FGFR2 (Homo sapiens)?
Given back: 1 to 50 nM

Asked: Any idea what Kd came out for C[C@@H](Oc1cc2c(-c3cnc(N4CC(C)(N5CCOCC5)C4)c(C#N)c3)n[nH]c2cc1F)c1c(Cl)cncc1Cl on FGFR2 (Homo sapiens)?
Given back: 50 to 300 nM

Asked: Any idea what Kd came out for C[C@@H](Oc1ccc2[nH]nc(-c3cnc(N4CC(C)(CN5CCCC5)C4)c(C#N)c3)c2c1)c1c(Cl)cncc1Cl on FGFR2 (Homo sapiens)?
Given back: 1 to 50 nM

Asked: Any idea what Kd came out for C[C@@H](Oc1cc2c(-c3ccc(N4CC(C)(NC5CCC5)C4)nc3)n[nH]c2cc1F)c1c(Cl)cncc1Cl on FGFR2 (Homo sapiens)?
Given back: 1 to 50 nM

Asked: Any idea what Kd came out for COc1cc2[nH]nc(-c3cc(C#N)c(N4CC(C)(NCC(C)C)C4)nn3)c2cc1O[C@H](C)c1c(Cl)cncc1Cl on FGFR2 (Homo sapiens)?
Given back: 1 to 50 nM

Asked: Any idea what Kd came out for C[C@H](Oc1ccc2[nH]nc(-c3cnc(N4CC(C)(N(C)C)C4)c(F)c3)c2c1)c1c(Cl)cncc1Cl on FGFR2 (Homo sapiens)?
Given back: 300 to 1000 nM

Asked: Any idea what Kd came out for C[C@@H](Oc1ccc2[nH]nc(-c3cnc(N4CC(C)(NCC5CC5)C4)c(C#N)c3)c2c1)c1c(Cl)cncc1Cl on FGFR2 (Homo sapiens)?
Given back: 50 to 300 nM

Asked: Any idea what Kd came out for COc1cc2[nH]nc(-c3cnc(N4CC(CC#N)(NCC5CC5)C4)c(C#N)c3)c2cc1O[C@H](C)c1c(Cl)cnc(C)c1Cl on FGFR2 (Homo sapiens)?
Given back: 1 to 50 nM

Asked: Any idea what Kd came out for C[C@@H](Oc1ccc2[nH]nc(-c3cnc(N4CC(C)(N5CCOCC5)C4)c(F)c3)c2c1F)c1c(Cl)cncc1Cl on FGFR2 (Homo sapiens)?
Given back: > 1000 nM

Asked: Any idea what Kd came out for Cc1ncc(Cl)c([C@@H](C)Oc2ccc3[nH]nc(-c4ccc(N5CC(C)(N(C)C)C5)nc4)c3c2)c1Cl on FGFR2 (Homo sapiens)?
Given back: 1 to 50 nM

Asked: Any idea what Kd came out for CC(C)NCC1(C)CN(c2ccc(-c3n[nH]c4cc(F)c(O[C@H](C)c5c(Cl)cncc5Cl)cc34)cn2)C1 on FGFR2 (Homo sapiens)?
Given back: 1 to 50 nM

Asked: Any idea what Kd came out for C[C@@H](Oc1ccc2[nH]nc(-c3cnc(N4CC(C)(NCC5(O)CC5)C4)c(C#N)c3)c2c1)c1c(Cl)cncc1Cl on FGFR2 (Homo sapiens)?
Given back: 50 to 300 nM

* * *

target: FGFR1 (Homo sapiens); construct: made in house; host or cells: E. coli (BL21-derived), T7 phage; assay: Kinase binding assay (kinase-tagged T7 phage, affinity beads, qPCR), Kd; settings: read-out: FGFR1 (Kd nM)
Sequence (P11362 22-822): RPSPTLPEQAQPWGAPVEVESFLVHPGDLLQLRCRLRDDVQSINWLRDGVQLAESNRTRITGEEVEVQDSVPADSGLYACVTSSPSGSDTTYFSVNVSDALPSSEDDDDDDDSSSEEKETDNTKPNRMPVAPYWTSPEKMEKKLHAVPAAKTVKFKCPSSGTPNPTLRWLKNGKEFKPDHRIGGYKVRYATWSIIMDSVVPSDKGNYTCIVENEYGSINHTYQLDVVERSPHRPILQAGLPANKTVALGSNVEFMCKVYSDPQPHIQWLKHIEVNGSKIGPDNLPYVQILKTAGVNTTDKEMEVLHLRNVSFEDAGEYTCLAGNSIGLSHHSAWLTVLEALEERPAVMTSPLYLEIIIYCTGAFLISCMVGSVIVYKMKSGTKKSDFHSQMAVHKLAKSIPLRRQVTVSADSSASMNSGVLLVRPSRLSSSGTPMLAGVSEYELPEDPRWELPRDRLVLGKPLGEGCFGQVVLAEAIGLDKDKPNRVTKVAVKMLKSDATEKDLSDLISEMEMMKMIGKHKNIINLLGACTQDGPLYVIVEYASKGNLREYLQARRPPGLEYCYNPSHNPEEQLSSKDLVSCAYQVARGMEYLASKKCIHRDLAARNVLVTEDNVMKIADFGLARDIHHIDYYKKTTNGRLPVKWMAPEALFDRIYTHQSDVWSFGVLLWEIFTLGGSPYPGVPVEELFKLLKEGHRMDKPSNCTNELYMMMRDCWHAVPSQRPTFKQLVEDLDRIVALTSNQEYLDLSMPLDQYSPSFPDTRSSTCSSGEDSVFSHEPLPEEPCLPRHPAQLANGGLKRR
measure-name: Kd

Asked: Any idea what Kd came out for COc1cc2[nH]nc(-c3cnc(N4CC5(CC5)C4)c(C#N)c3)c2cc1O[C@H](C)c1c(Cl)cncc1Cl on FGFR1 (Homo sapiens)?
Given back: 50 to 300 nM

Asked: Any idea what Kd came out for CCNC1(C)CN(c2ncc(-c3n[nH]c4ccc(O[C@H](C)c5c(Cl)cncc5Cl)cc34)cc2C#N)C1 on FGFR1 (Homo sapiens)?
Given back: 1 to 50 nM

Asked: Any idea what Kd came out for CNC1(CC#N)CN(c2ncc(-c3n[nH]c4cc(OC)c(O[C@H](C)c5c(Cl)cncc5Cl)cc34)cc2C#N)C1 on FGFR1 (Homo sapiens)?
Given back: 1 to 50 nM

Asked: Any idea what Kd came out for COc1cc2[nH]nc(-c3cnc(N4CC[C@@](C)(N)C4)c(C#N)c3)c2cc1O[C@H](C)c1c(Cl)cncc1Cl on FGFR1 (Homo sapiens)?
Given back: 1 to 50 nM

Asked: Any idea what Kd came out for COc1cc2[nH]nc(-c3cnc(N4CCC4)c(F)c3)c2cc1O[C@H](C)c1c(Cl)cnc(C)c1Cl on FGFR1 (Homo sapiens)?
Given back: 50 to 300 nM

Asked: Any idea what Kd came out for C[C@@H](Oc1ccc2[nH]nc(-c3cnc(N4CC(C)(N5CCCC5)C4)c(C#N)c3)c2c1F)c1c(Cl)cncc1Cl on FGFR1 (Homo sapiens)?
Given back: > 1000 nM

Asked: Any idea what Kd came out for Cc1ncc(Cl)c([C@@H](C)Oc2ccc3[nH]nc(-c4cnc(N5CC(C)(NC6CCC6)C5)c(C#N)c4)c3c2)c1Cl on FGFR1 (Homo sapiens)?
Given back: 50 to 300 nM

Provenance of the data: patent US20250368666A1
